System: Vero E6
Assay: cell viability relative to DMSO; higher = less toxic
Details: 72 h; 10 nM
Property: cell viability (%)
Only the number, expressed in %, is required.

Observe how each entry below is paired with its result.
- Compound: "CC(=O)c1cc([N+](=O)[O-])c(Sc2ccc(F)cc2F)s1"
  Measurement target: "Vero E6"
  cell viability / %: 98.8
- Compound: "NS(=O)(=O)c1cc2c(cc1Cl)NC(CC1CCCC1)NS2(=O)=O (stereo unspecified) [cyclopenthiazide]"
  Measurement target: "Vero E6"
  cell viability / %: 91
- Compound: "COc1cc(C(=S)N2CCOCC2)ccc1O [vanitiolide]"
  Measurement target: "Vero E6"
  cell viability / %: 91.6

Form field cell viability, entry CCC1(c2ccccc2)C(=O)N(COC)C(=O)N(COC)C1=O : 110

Query O=C(NCC1CCCCN1)c1cc(OCC(F)(F)F)ccc1OCC(F)(F)F (stereo unspecified) [flecainide] yields cell viability of 99.6

Just so you know, measured cell viability for CC(C)OC(=O)N1CCC(Oc2ncnc3c2cnn3-c2ccc(S(C)(=O)=O)cc2F)CC1 came out at 95.2

Data origin: the supplement of paper PMC13380429
